Test system: MCF7
Test: NCI tumour cell line growth inhibition, 48 h
The source made the active and inactive calls. Rule as the data show it: active = GI50 up to about 1.1 µM and inactive = higher. Where a SMILES comes first, the peptide text is derived from it. The star is where a group is joined. Cbz = O=C(OCc1ccccc1)*; OBn = c1ccc(CO*)cc1
Outcome codes: True (active), False (inactive)

* CN(C)c1ccc(/C=c2\c3cc([N+](=O)[O-])ccc3n3c2cc(-c2ccccc2)[n+]3C)cc1 | True
* COc1ccc(C(=O)/C=C/c2ccc(OCCCCCCCCCCOc3ccc(/C=C/C(=O)c4ccc(OC)cc4)cc3)cc2)cc1 | False
* Clc1ccc(-c2ccc(-c3nnc(CCc4nnc(-c5ccc(-c6ccc(Cl)cc6)o5)o4)o3)o2)cc1 | False
* COc1ccc(Cn2c3c(cc(OC(C)=O)c2=O)Cc2ccccc2-3)cc1 | False
* Cc1ccccc1/N=N/c1ccc(/N=N/c2c(O)ccc3cc(S(=O)(=O)O)cc(S(=O)(=O)O)c23)c(C)c1 | False
* CCOC(=O)/C(=N\Nc1ccc(-n2c(C)nc3ccccc3c2=O)cc1)C(C)=O | False
* Cc1nc2c(o1)C(=O)c1ccccc1/C2=N/C1CCCCC1N (centres undefined) | True
* CSC(=O)/C=C1\SS/C(=C\C(=O)SC)S1 | False
* COc1cc(C=C2C(C)=NN(c3cccc(Cl)c3)C23SCC(=O)N3c2nc3ccccc3s2)ccc1O (centres undefined) | False
* O=C1C(Cl)C2(CC(/C=C/c3ccccc3Cl)=NN2c2cccc(S(=O)(=O)O)c2)N1c1nc2ccccc2s1 (centres undefined) | False
* C/C(=N\NC(=S)NCCNC(=S)N/N=C(\C)c1ccccn1)c1ccccn1 | False
* O/N=C\c1cc(O)c(O)c(/C=N/O)c1 | False
* CCON1CC(C(=O)OC)=C(O)C1=O | False
* CC(=O)O[C@@H]1C2=C(C)C=C(O2)[C@H]2O[C@]2(C)C[C@H]2C=C(C(=O)O2)[C@H](OC(C)=O)CC1[C@@]1(C)CO1 (some centres undefined) | False
* COC(=O)c1c2c(cc3c1CC1(Cc4ccccc4C1=O)C3)CCC2 (centres undefined) | False
* O=c1cc(NNc2ccccc2)[nH]c(=S)[nH]1 | False
* N=c1oc2ccccc2cc1C(=O)Nc1cccc2ccccc12 | False
* COC(=O)C(Cc1ccc(O)cc1)NC(=O)C(CC(=O)OCc1ccccc1)NC(=O)OCc1ccccc1 (centres undefined) (Cbz-Asp(OBn)-Tyr-OMe; configuration not given here) | False
* CCCCn1cnc2c(SC)ncnc21 | False

----------
Test system: SF-295
Assay: NCI tumour cell line growth inhibition, 48 h
Activity calls are given as the source filed them. Cut-off read from the data, not from the text of the source: active = GI50 up to about 1.1 µM and inactive = higher.
MEASURE: GI50

* CC(=O)c1cccc(NC(=O)/C(=N\NC(C)(C)C)c2c(O)c3ccccc3oc2=O)c1 | > 100 µM (inactive)
* COC1C=COC2(C)Oc3c(C)c(O)c4c(O)c(c(C5SCCS5)c(O)c4c3C2=O)NC(=O)/C(C)=C\C=CC(C)C(O)C(C)C(O)C(C)C(OC(C)=O)C1C (stereo not drawn) | 4.74 µM (inactive)
* N#Cc1c(NC(=S)Nc2ccccc2)sc2c1CCCC2 | > 100 µM (inactive)

----------
System: K562
Assay: NCI tumour cell line growth inhibition, 48 h
Calls of active or inactive are those of the source. Cut-off read from the data, not from the text of the source: active = GI50 up to about 1.1 µM and inactive = higher.
MEASURE: GI50

• CO[C@H]1SC[C@H](OC(C)=O)[C@H](OC(C)=O)[C@H]1OC(C)=O = > 100 µM (inactive)
• C=C1CC(Cn2cc(Br)c(=O)[nH]c2=O)(c2ccc(Br)cc2)OC1=O (stereo not drawn) = 0.644 µM (active)
• C=CCNC(=S)N1CC(C)C(=O)Nc2ccccc21 (stereo not drawn) = > 100 µM (inactive)
• CC(=O)c1ccc2c3c1O[C@H]1c4[nH]c5ccccc5c4C[C@@]4(O)[C@@H](C2)N(CC2CC2)CC[C@]314 = 16.8 µM (inactive)
• COC(=O)C1C(C(=O)OC)C2(OC)c3ccccc3-c3ccccc3C12 (stereo not drawn) = 19.8 µM (inactive)
• CC(=O)O[C@H]1CC[C@@]2(C)C(=CC[C@H]3C(CC#N)[C@@](C)(C#N)CCC32)C1 (stereo partly drawn) = > 100 µM (inactive)
• CN(Cc1cccc2ccsc12)/N=C\c1ccc(Cl)cc1 = 40.6 µM (inactive)
• O=[N+]([O-])c1cccc(/C=N/C23CC4CC(CC(C4)C2)C3)c1 = 29.7 µM (inactive)
• CN(CC(=O)O)CC(=O)O = > 100 µM (inactive)
• O=C1/C(=C2\Sc3c(ccc(Cl)c3Cl)C2=O)Sc2c1ccc(Cl)c2Cl = > 100 µM (inactive)
• Clc1nc(-[n+]2ccc(-c3ccncc3)cc2)nc(Nc2ccccc2)c1Cl = 52.1 µM (inactive)
• N#Cc1c(N)nc(S)c(C#N)c1-c1ccccc1 = > 100 µM (inactive)
• CC[C@]1(O)CC(OC2CC(N(C)C)C(O)C(C)O2)c2c(cc3c(c2O)C(=O)c2c(O)cccc2C3=O)[C@@H]1C(=O)OC (stereo partly drawn) = 0.0733 µM (active)
• COC(=O)c1c2c(cc3c1CC1(Cc4ccccc4C1=O)C3)CCC2 (stereo not drawn) = 8.34 µM (inactive)
• COc1cc(/C=C2/SC(c3ccccc3)N(c3ccccc3Cl)C2=O)cc(OC)c1OC (stereo not drawn) = 31.2 µM (inactive)
• COc1ccc2c[n+](C)c3c4cc(OC)c(OC)cc4ccc3c2c1 = 2.43 µM (inactive)
• c1ccc2c(c1)CCc1c-2n(CCN2CCOCC2)c2ccccc12 = 2.14 µM (inactive)
• CC(=O)O[C@H]1C(=O)[C@@]2(C)[C@H]([C@H](OC(=O)c3ccccc3)[C@@]3(O)C[C@H](O)C(C)=C1C3(C)C)[C@]1(OC(C)=O)CO[C@@H]1C[C@@H]2O = 55.8 µM (inactive)
• Cc1nc2ccccc2[s+]c1-c1cnc(NC#N)nc1C(=O)Nc1cccc(Cl)c1 = > 100 µM (inactive)
• COc1cc2cccc(/N=C\c3ccccc3Cl)c2cc1OC = 4.8 µM (inactive)
• C/C1=C\CC[C@@]2(C)O[C@@H]2C[C@@H]2[C@H](C/C(C)=C/CC1)OC(=O)C21CC1 = 21 µM (inactive)
• COc1cc2c(/C=C3/C(=O)Nc4ccccc43)c(Cl)n(Cc3ccc(Cl)cc3)c2cc1C = 0.365 µM (active)
• N#Cc1c(NC(=S)Nc2ccccc2)sc2c1CCCC2 = > 100 µM (inactive)

----------
Tested on: TK-10
Test: NCI tumour cell line growth inhibition, 48 h
Calls of active or inactive are those of the source. Rule as the data show it: active = GI50 up to about 1.1 µM and inactive = higher.
Listed next: entries and their corresponding GI50.
MEASURE: GI50

- COc1cc(C)c(S(=O)(=O)N(CCCN)OCCCN)c(C)c1C: 34 µM (inactive)
- Cc1ccc2c(c1)SC(c1cc3c(cc1Br)OCO3)S2 (stereo unspecified): > 31.6 µM (inactive)
- C[C@H](N[C@H]1CCC[C@]1(O)C#Cc1ccc2c(c1)OCO2)c1ccccc1: > 25 µM (inactive)
- COc1cc(C(c2c(O)c3ccccc3oc2=O)c2c(O)c3ccccc3oc2=O)cc(Br)c1O: 16.1 µM (inactive)
- COc1cc(/C=C2/SC(c3ccccc3)N(c3ccccc3Cl)C2=O)cc(OC)c1OC (stereo unspecified): 69.5 µM (inactive)
- CCc1ccc2nccc(NCCCN(C)C)c2c1[N+](=O)[O-]: > 100 µM (inactive)
- NC(N)NCCCc1cn2c(n1)C1CCCN1C(=O)C2Cc1ccccc1 (stereo unspecified): > 100 µM (inactive)
- Cc1ccc([N+](=O)[O-])cc1NC(=O)/C(CC(=O)c1sc(C(N)=S)nc1C)=N\N: > 100 µM (inactive)
- O/N=C\c1cc(O)c(O)c(/C=N/O)c1: 63.4 µM (inactive)
- Cc1ccc(S(=O)(=O)NC(CCC(=O)NNc2ccccc2)C(=O)NNc2ccccc2)cc1 (stereo unspecified): 1.95 µM (inactive)
- CC1=CC2C(O1)C1C(=O)C=CC(=O)C1=CC2[N+](=O)[O-] (stereo unspecified): 16.1 µM (inactive)
- COC(=O)C1=Nc2c(C)nn(-c3ccccc3)c2N=C(c2ccccc2)C1: > 10 µM (inactive)
- Cc1c(-c2ccccc2)c(=O)oc2ccc(Cl)cc12: 33.3 µM (inactive)
- COCCCNC(=O)CC(=O)NCCCOC: > 100 µM (inactive)
- COc1ccc(NC(C)=O)cc1N1C(=O)/C(=C\c2ccccc2)SC1c1cc(OC)c(OC)c(OC)c1 (stereo unspecified): > 100 µM (inactive)
- C=CCn1c(-c2ccc(/N=N/Nc3ccc(-c4n[nH]c(=S)n4CC=C)cc3)cc2)n[nH]c1=S: 11.8 µM (inactive)

----------
Tested on: COLO 205
Test: NCI tumour cell line growth inhibition, 48 h
Active and inactive are the calls of the source. Cut-off read from the data, not from the text of the source: active = GI50 up to about 1.1 µM and inactive = higher.
Labels: TRUE for active, FALSE for inactive

- CC(C)(CO)CNc1cc(Cl)nc(N)n1: FALSE
- COc1cc2c(cc1O)NC(=O)[C@@H]1CCCN1C2=O: FALSE
- O=C(N/C(=C\c1ccc(/C=C(\NC(=O)c2ccccc2)c2nc3ccccc3[nH]2)cc1)c1nc2ccccc2[nH]1)c1ccccc1: FALSE
- Cc1ccc(S(=O)(=O)NNC(=O)Nc2ccc(Cl)cc2)cc1: FALSE
- CCOC(=O)c1c(N)nn2c1cc1cccccc12: FALSE
- Cc1cc(=O)oc2c(C)c3oc(CBr)cc3cc12: FALSE
- CC(C)(C)NC(=O)/C(=C\Sc1ccccc1)c1ccccc1: FALSE
- CN(C)CCCc1cccc2[nH]c3c(c12)CN(C)CC3: FALSE
- CC1=CC2C(O1)C1C(=O)C=CC(=O)C1=CC2[N+](=O)[O-] (configuration not stated): FALSE
- CCOC(=O)C12CCCC1(O)N(NC(=O)OC(C)(C)C)C(C)=C2C(=O)OC (configuration not stated): FALSE
- CCN(C(=S)N[C@H](C(=O)N[C@@H](C)C(=O)OC)C(C)C)c1ccccc1: FALSE
- Nc1nc2cc3nc(N)c(N)nc3cc2nc1N: FALSE
- O=C1C2CC(Cl)C(SSC3CC4C(=O)N(SC(Cl)(Cl)C(Cl)Cl)C(=O)C4CC3Cl)CC2C(=O)N1SC(Cl)(Cl)C(Cl)Cl (configuration not stated): FALSE
- CC1(C)N=c2c(ncn2CCCO)=C(C(N)=O)N1: FALSE
- CCCCN1C(=O)N(c2ccc(OCC)cc2)C2N(CCCC)C1C(C)(C)C2(C)C (configuration not stated): FALSE
- O=C(CSc1nnc(Cc2ccccc2)o1)Nc1ccc(Cl)cc1Cl: FALSE
- COC(OC)[C@@H]1OC[C@H](n2cnc3c(N)ncnc32)[C@H]1O: FALSE
- Cc1cccc(NC(=O)CC(=O)N2N=C(N3c4ccccc4Sc4ccccc43)CC2c2ccccc2)c1 (configuration not stated): FALSE
- COC(=O)Cc1c(/C=C/C(C)(C)n2cnc(CCN3C(=O)CCC3=O)c2)[nH]c2ccccc12: FALSE
- O=C1/C(=C2\Sc3c(ccc(Cl)c3Cl)C2=O)Sc2c1ccc(Cl)c2Cl: FALSE
- O=C(Cc1nc2ccccc2s1)C(=O)Nc1ccc(Cl)cc1: FALSE
- COc1cc(-c2n[nH]cc2CCCC(=O)Nc2ccccc2[N+](=O)[O-])ccc1O: FALSE
- CCOC(=O)Cc1csc(Nc2ccccc2[N+](=O)[O-])n1: FALSE
- CCCNCCCCC(NC(C)=O)C(=O)NCc1ccccc1 (configuration not stated): FALSE
- C=C1C(=O)O[C@@H]2[C@H](O)[C@@H](C)[C@@H]3C=CC(=O)[C@@]3(C)[C@@H](OC(=O)/C(C)=C/C)[C@H]12: TRUE
- N#CC(C(=O)C(=O)C(C#N)c1ccc(Br)cc1)c1ccc(Br)cc1 (configuration not stated): FALSE
- COc1cc2c(cc1OC)C1Cc3cc(OC)c(OC)cc3N1CC2 (configuration not stated): FALSE
- COC(=O)[C@@H]1C(=O)O[C@@H](c2cc(OC)c(OC)cc2OC)[C@@H]1C(=O)OC.COC(=O)[C@H]1C(=O)O[C@@H](c2cc(OC)c(OC)cc2OC)[C@@H]1C(=O)OC: FALSE
- Cc1cccc(NC(=O)CSc2nnc(Cc3ccccc3)o2)c1: FALSE
- Brc1ccc(-c2[nH]c3ccccc3c2/N=N\c2ccccc2)cc1: FALSE
- Cc1cc(O)nc(NN2C(Cl)C(=O)C2c2cccc(Cl)c2)n1 (configuration not stated): FALSE
- Clc1ccc(C2C3COc4ccccc4C3=NN2c2ccccc2)cc1 (configuration not stated): FALSE
- CO[C@H]1SC[C@H](OC(C)=O)[C@H](OC(C)=O)[C@H]1OC(C)=O: FALSE
- Clc1ccc(-c2ccc(-c3nnc(CCc4nnc(-c5ccc(-c6ccc(Cl)cc6)o5)o4)o3)o2)cc1: FALSE
- O=C1NC2OC(CO)C(O)C(O1)C2O (configuration not stated): FALSE
- CCOC1OC(=O)c2cc3ccc4c(c3c(-c3ccc5c(c3)OCO5)c21)OCO4 (configuration not stated): FALSE
- COc1cccc(CC(C)NCC(O)c2ccc(O)c(O)c2)c1 (configuration not stated): FALSE
- Cc1ccc(S(=O)(=O)OCCN(CCOS(=O)(=O)c2ccc(C)cc2)c2ccc(C=O)cc2)cc1: FALSE
- N#Cc1ccccc1OCCOc1ccccc1C#N: FALSE
- CC(C)(C)OC(=O)NC(C)(C)C(=O)NCCC(=O)O: FALSE
- CCCCCCCCCCCCSC(=S)c1c(C)[nH]n(CCCCCCCCCCCC)c1=O: FALSE
- CCOc1c(OC)cc(-c2nc3n(n2)C(=O)C(CC)S3)cc1OC (configuration not stated): FALSE

Provenance of the data: ChEMBL document CHEMBL1201862
